Numbers sourced from patent US4952580A.

Listing of entries alongside the reported pest or weed control at 5 ppm.
Tested on: stunt nematode
Assay Procedure: Stunt Nematode Test
Assay type: in vivo
Test Context: 672 h, Table 4a; rate 5 ppm; read-out: Percent Control

Entry Smiles	pest or weed control at 5 ppm (%)
FC(F)=C(F)CCSc1nnc(Cc2ccc(F)cc2F)o1	65
FC(F)=C(F)CCSc1nnc(SCc2ccccc2)s1	84
FC(F)=C(F)CCSc1nnc(Cc2ccccc2)o1	76
N#CCCSc1nnc(SCCC(F)=C(F)F)s1	38
FC(F)=C(F)CCSc1nnc(Cc2ccccc2F)o1	75
FC(F)=C(F)CCSc1nnc(Cc2ccc(Cl)cc2)o1	81
FC(F)=C(F)CCSc1nnc(CCc2ccccc2)o1	35
C=CCSc1nnc(SCCC(F)=C(F)F)s1	52
FC(F)=C(F)CCSc1nnc(Cc2ccc(F)cc2)o1	80
CCCc1nnc(SCCC(F)=C(F)F)o1	29
